src = patent US8470867B2

Exercise: state measured melting point for each of the compounds provided.
Counter-ions that a name gives are not always drawn.

Give reported melting point value for Cl.Clc1ccc(-n2nc(OCCN3CCOCC3)cc2-c2ccccc2)cc1Cl 197 to 207 °C

Give reported melting point value for Clc1ccc(-n2ccc(OCCCN3CCCC3)n2)cc1Cl (as salt: hydrochloride) 156 to 159 °C

Give reported melting point value for COCCN(C)CCCCOc1ccn(-c2ccc(Cl)c(Cl)c2)n1.O=C(O)C(=O)O 97 to 100 °C

Give reported melting point value for Cc1cc(OCCCN2CCCC2)nn1-c1ccc(Cl)c(Cl)c1.Cl 149 to 155 °C

Give reported melting point value for Cc1cc(OCCCCN2CCC(c3ccccc3)CC2)nn1-c1ccc(Cl)c(Cl)c1.Cl 166 to 170 °C
